All figures here come from PubChem BioAssay (EPA / NIEHS).

read-out: Vascular cell adhesion molecule 1 (VCAM1), VCAM1 (gene 7412); test: BSK_4H_VCAM1: BioMAP Diversity Plus: 4H Assay for Vascular cell adhesion molecule 1 (VCAM1) Biomarker Activity (AID 2283033); conditions: primary human endothelial cells (HUVEC); actives raise or lower the signal;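 on Outcome: cell-surface VCAM-1 protein measured by ELISA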
The source made the active and inactive calls. How the source made its calls: active means hit-call score of the fitted dose curve at least 0.9, where 1 is the maximum; inactive means score below 0.9.
Outcome codes: active, inactive

{"compoundSmiles": "O=c1[nH]sc2ccccc12", "class": "active"}
{"compoundSmiles": "Cc1cccc2ccccc12", "class": "inactive"}
{"compoundSmiles": "O=c1c(-c2ccc(O)cc2)coc2cc(O)cc(O)c12", "class": "active"}
{"compoundSmiles": "Clc1cc(Cl)c2c(c1)N=C1CCCCCN1C2", "class": "inactive"}
{"compoundSmiles": "CC1(C)NC(=O)N(c2ccc([N+](=O)[O-])c(C(F)(F)F)c2)C1=O", "class": "inactive"}
{"compoundSmiles": "Oc1ccc2ccccc2c1", "class": "inactive"}
{"compoundSmiles": "c1ccc2ccccc2c1", "class": "inactive"}
